# Test system: K562
# EXPERIMENT DESCRIPTION: cell viability relative to vehicle control; higher = less cytotoxic;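 note: after 48 h exposure read by CellTiter-Glo luminescence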
# MEASUREMENT CONTEXT: 10 µM; SRSF2 genotype: SRSF2 wt/wt
This listing pairs molecules with measured cell viability.
Response body: numeric value in %, unit text excluded.

Past entries and their recorded results:
Looking for the measured cell viability of CCC(=O)OCC(=O)[C@@]1(OC(=O)CC)[C@@H](C)C[C@H]2[C@@H]3CCC4=CC(=O)C=C[C@]4(C)[C@@]3(Cl)[C@@H](O)C[C@@]21C [Beclomethasone dipropionate] , can you help? 87.7

Looking for the measured cell viability of O=C1C[C@@H](c2ccc(O[C@@H]3O[C@H](CO)[C@@H](O)[C@H](O)[C@H]3O)cc2)Oc2cc(O)ccc21 , can you help? 83.8

Looking for the measured cell viability of CN(CCN1CCC(OC(=O)Nc2ccccc2-c2ccccc2)CC1)C(=O)c1ccc(CN2CCC(C(N)=O)CC2)cc1 , can you help? 92.8

Looking for the measured cell viability of C[C@H](CCC(=O)O)[C@H]1CC[C@H]2[C@@H]3CC[C@@H]4C[C@H](O)CC[C@]4(C)[C@H]3CC[C@]12C , can you help? 101

Looking for the measured cell viability of CN[C@@H](C)C(=O)N[C@H](C(=O)N1CCC[C@H]1C(=O)N[C@H](C(=O)NCCCCCCNC(=O)[C@@H](NC(=O)[C@@H]1CCCN1C(=O)[C@@H](NC(=O)[C@H](C)NC)C1CCCCC1)C(c1ccccc1)c1ccccc1)C(c1ccccc1)c1ccccc1)C1CCCCC1 , can you help? 3.06

Looking for the measured cell viability of CCN(CC)CCNC(=O)c1c(C)[nH]c(/C=C2\C(=O)Nc3ccc(-c4csc(-c5ccccc5)n4)cc32)c1C , can you help? 0.76

Looking for the measured cell viability of CCCC(CCC)C(=O)O [Valproic acid] , can you help? 106

Looking for the measured cell viability of CNC(=O)c1ccc(-c2cnc3ncc(Cc4ccc5ncccc5c4)n3n2)cc1F , can you help? 102

***
Looking for the measured cell viability of Cc1cnc(Nc2ccc(F)cc2Cl)nc1-c1c[nH]c(C(=O)NC(CO)c2cccc(Cl)c2)c1 (centres undefined) , can you help? 72.9

Looking for the measured cell viability of CC(C)(C)OC(=O)N[C@@H]1CCCC[C@H]1N [(1R,2R)-trans-N-Boc-1,2-cyclohexanediamine] , can you help? 98.6

Looking for the measured cell viability of COc1cc(Br)c(Nc2nc(-c3c(C)nc4ncccn34)cs2)c(Br)c1 , can you help? 24

Looking for the measured cell viability of O=c1[nH]c(=S)[nH]c2nc(-c3ccccc3)c(-c3ccccc3)nc12 , can you help? 92

Looking for the measured cell viability of C=C(C)[C@@H]1CC[C@]2(C(=O)O)CC[C@]3(C)[C@H](CC[C@@H]4[C@@]5(C)CCC(=O)C(C)(C)[C@@H]5CC[C@]43C)[C@@H]12 , can you help? 61.4

Looking for the measured cell viability of CN1CCN(Cc2ccc(-c3cnc4[nH]cc(-c5ccc6[nH]ccc6c5)c4c3)cc2)CC1 , can you help? 2.36

* * *

# Tested on: MARIMO
# EXPERIMENT DESCRIPTION: cell viability relative to vehicle control; higher = less cytotoxic
# MEASUREMENT CONTEXT: 10 µM; SRSF2 genotype: SRSF2 wt/wt
This listing pairs compounds with measured cell viability.
Response body: numeric value in %, unit text excluded.

Looking for the measured cell viability of O=C(c1cc(Cc2n[nH]c(=O)c3ccccc23)ccc1F)N1CCN(C(=O)C2CC2)CC1 , can you help? 96.1

Looking for the measured cell viability of COc1ccc(C(=O)O)c(O)c1 [4-Methoxysalicylic acid] , can you help? 99.3

Looking for the measured cell viability of Clc1cccc(-c2nnnn2Cc2cccnc2)c1Cl , can you help? 101

Looking for the measured cell viability of C[C@@]12CC[C@@H]3[C@@](CC[C@H]4[C@@]3(C)CCC[C@@]4(C)C(=O)O)(CC1=O)C2 [Iso-Steviol] , can you help? 107

Please turn your attention to the following entry.
Looking for the measured cell viability of COc1cc2c(cc1O)CC[n+]1cc3c(OC)c(OC)ccc3cc1-2 [Jatrorrhizine] , can you help? 103

* * *

This listing pairs compounds with measured cell viability.
# Tested on: OCI-AML2
# EXPERIMENT DESCRIPTION: cell viability relative to vehicle control; higher = less cytotoxic
# MEASUREMENT CONTEXT: 10 µM; SRSF2 genotype: wt/wt
Response body: numeric value in %, unit text excluded.

Any idea what cell viability came out for O=Cc1ccc(O)c(O)c1 [3,4-Dihydroxybenzaldehyde] on OCI-AML2? 92.4

Any idea what cell viability came out for COC(=O)N[C@H](C(=O)N1CCC[C@H]1C(=O)Nc1ccc([C@@H]2CC[C@@H](c3ccc(NC(=O)[C@@H]4CCCN4C(=O)[C@@H](NC(=O)OC)C(C)C)cc3)N2c2ccc(C(C)(C)C)cc2)cc1)C(C)C [Ombitasvir(ABT-267)] on OCI-AML2? 99.6

Any idea what cell viability came out for OC1OC[C@@H](O)[C@@H](O)[C@@H]1O (stereo partly drawn) [D(-)-Arabinose] on OCI-AML2? 117

Any idea what cell viability came out for CC(C)(C)n1nc(-c2ccc(Cl)cc2)c2c(N)ncnc21 on OCI-AML2? 78.3

Any idea what cell viability came out for OC[C@H]1O[C@H](O[C@H]2[C@H](O)[C@@H](O)C(O)O[C@@H]2CO)[C@H](O)[C@@H](O)[C@@H]1O (mixture of isomers) [Maltose] on OCI-AML2? 104

***
Any idea what cell viability came out for O=C(Nc1ncc([N+](=O)[O-])s1)c1ccccc1O [Tizoxanide] on OCI-AML2? 96.1

Any idea what cell viability came out for Cc1c(C(=O)NN2CCCCC2)nn(-c2ccc(Cl)cc2Cl)c1-c1ccc(Cl)cc1 on OCI-AML2? 90.9

* * *

This listing pairs molecules with measured cell viability.
# Test system: OCI-AML2
# EXPERIMENT DESCRIPTION: cell viability relative to vehicle control; higher = less cytotoxic
# MEASUREMENT CONTEXT: 10 µM; SRSF2 genotype: wt/wt
Response body: numeric value in %, unit text excluded.

Past entries and their recorded results:
Looking for the measured cell viability of C=CC(=O)Nc1cccc(Nc2nc(Nc3ccc(Oc4ccnc(C(=O)NC)c4)cc3)ncc2F)c1 , can you help? 63.8

Looking for the measured cell viability of O=C(O)Cc1cccc2ccccc12 [Potassium 1-Naphthaleneacetate] , can you help? 98.8

Looking for the measured cell viability of O=C(NNc1nc2cc(F)ccc2n2cccc12)c1cnccn1 , can you help? 10.5

Looking for the measured cell viability of CC(=O)OCC(=O)[C@H]1CC[C@H]2[C@@H]3CCC4=CC(=O)CC[C@]4(C)[C@H]3CC[C@]12C [Deoxycorticosterone acetate] , can you help? 76.2

Looking for the measured cell viability of CC(C)OC(=O)C(C(=O)OC(C)C)=C1SC=CS1 [Malotilate] , can you help? 88.8

Looking for the measured cell viability of CCCC(CCC)C(=O)O [Divalproex sodium] , can you help? 108

Looking for the measured cell viability of O=C(NNc1ccccc1)c1ccncc1 , can you help? 97.9

Looking for the measured cell viability of COCCNc1cc(NC(=O)N2CCCc3cc(CN4CCN(C)CC4=O)c(C=O)nc32)ncc1C#N , can you help? 109

Please turn your attention to the following entry.
Looking for the measured cell viability of CC1(C)CC[C@]2(C(=O)O)CC[C@]3(C)C(=CC[C@@H]4[C@@]5(C)CC[C@H](O)C(C)(C)[C@@H]5CC[C@]43C)[C@@H]2C1 , can you help? 82.7

* * *

# Tested on: MARIMO
# EXPERIMENT DESCRIPTION: cell viability relative to vehicle control; higher = less cytotoxic
# MEASUREMENT CONTEXT: 10 µM; SRSF2 genotype: SRSF2 P95H/wt
RECORDED ENDPOINT: cell viability
Field: value (include unit after the number)

Past entries and their recorded results:
Looking for the measured cell viability of CC1(C)[C@@H](OC(=O)CCC(=O)O)CC[C@]2(C)[C@H]3C(=O)C=C4[C@@H]5C[C@@](C)(C(=O)O)CC[C@]5(C)CC[C@@]4(C)[C@]3(C)CC[C@@H]12 [Carbenoxolone disodiuM] , can you help? 96.2%

Looking for the measured cell viability of O=C(/C=C/c1ccc(CN(CCO)CCc2c[nH]c3ccccc23)cc1)NO , can you help? 5.99%

Looking for the measured cell viability of O=C(O)c1ccccc1-c1c2cc(Br)c(=O)c(Br)c-2oc2c(Br)c(O)c(Br)cc12 [Eosin Y Disodium] , can you help? 96%

Looking for the measured cell viability of Cc1cc2c(C(=O)NCC(C)c3ccccc3)c(O)c(O)cc2c(O)c1-c1c(C)cc2c(C(=O)NCC(C)c3ccccc3)c(O)c(O)cc2c1O (configuration not stated) , can you help? 12.7%

Looking for the measured cell viability of CN1CCN(C2CCN(C(=O)Nc3cc(Oc4ccc(NC(=O)C5(C(=O)Nc6ccc(F)cc6)CC5)c(F)c4)ccn3)CC2)CC1 [Golvatinib (E7050)] , can you help? 61.6%

Looking for the measured cell viability of C/C(=C(/CCOC(=O)c1ccccc1)SC(=O)c1ccccc1)N(C=O)Cc1cnc(C)nc1N , can you help? 96.5%

Looking for the measured cell viability of CC(C)c1c2cc(-c3ccnc(NC4CCC(NC5CCOCC5)CC4)n3)ccc2nn1C (configuration not stated) , can you help? 13.4%

Looking for the measured cell viability of CCCCC[C@H](O)/C=C/[C@H]1[C@H](O)CC(=O)[C@@H]1C/C=C\CCCC(=O)O , can you help? 91.4%

Looking for the measured cell viability of Cc1ccc(C(=O)Cn2c3c(sc2=N)CCCC3)cc1 , can you help? 81.4%

Looking for the measured cell viability of C[C@@H]1CC[C@]2(C(=O)O[C@@H]3O[C@H](CO)[C@@H](O)[C@H](O)[C@H]3O)CC[C@]3(C)C(=CC[C@@H]4[C@@]5(C)CC[C@H](O)[C@@](C)(CO)[C@@H]5CC[C@]43C)[C@@H]2[C@]1(C)O [Pedunculoside] , can you help? 108%

Please turn your attention to the following entry.
Looking for the measured cell viability of COc1ccc(-c2cc(=O)c3c(O)cc(O[C@@H]4O[C@H](CO[C@@H]5O[C@@H](C)[C@H](O)[C@@H](O)[C@H]5O)[C@@H](O)[C@H](O)[C@H]4O)cc3o2)cc1O , can you help? 94.8%
